Parameters: species or system Male SD (Sprague-Dawley) rats
Details: rat, in vivo, po, 0.036 mmol/kg
// reported AUC0-24 h of ETVMP in Liver for each item listed
Field format: number, assumed nmol·h/g, no unit text.

Would you please look over these solved cases?
Q) Bench note: what AUC0-24 h of ETVMP in Liver did C=C1[C@@H](CO)[C@@H](O)C[C@@H]1n1cnc2c(=O)[nH]c(N)nc21 [ETV, reference compound] show?
A) 16.6

Q) Bench note: what AUC0-24 h of ETVMP in Liver did C=C1[C@H](COP2(=O)OCC[C@H](c3cccc(Cl)c3)O2)[C@@H](O)C[C@@H]1n1cnc2c(=O)[nH]c(N)nc21 (stereo partly drawn) show?
A) 16.2

Q) Bench note: what AUC0-24 h of ETVMP in Liver did C=C1[C@H](COP2(=O)OCC[C@H](c3cc(F)cc(Cl)c3)O2)[C@@H](O)C[C@@H]1n1cnc2c(=O)[nH]c(N)nc21 (stereo partly drawn) show?
A) 8.1

Q) Bench note: what AUC0-24 h of ETVMP in Liver did C=C1[C@H](COP2(=O)OCC[C@H](c3cc(Cl)ccc3Cl)O2)[C@@H](O)C[C@@H]1n1cnc2c(=O)[nH]c(N)nc21 (stereo partly drawn) show?
A) 9.0

Q) Bench note: what AUC0-24 h of ETVMP in Liver did C=C1[C@H](COP2(=O)OCC[C@H](c3ccncc3)O2)[C@@H](O)C[C@@H]1n1cnc2c(=O)[nH]c(N)nc21 (stereo partly drawn) show?
A) 18.9

Others:
Q) Bench note: what AUC0-24 h of ETVMP in Liver did C=C1[C@H](COP2(=O)OCC[C@H](c3cc(Cl)ccc3F)O2)[C@@H](O)C[C@@H]1n1cnc2c(=O)[nH]c(N)nc21 (stereo partly drawn) show?
A) 11.6

---

Parameters: species or system Male SD (Sprague-Dawley) rats
Conditions: rat, in vivo, po, 0.036 mmol/kg
AUC0-24 h of ETVMP in Plasma vs 0.2 nmol·h/g: less than gives y; not less than gives n.

Would you please look over these solved cases?
Q) Just wondering, is AUC0-24 h of ETVMP in Plasma of C=C1[C@H](COP2(=O)OCC[C@H](c3cccc(Cl)c3)O2)[C@@H](O)C[C@@H]1n1cnc2c(=O)[nH]c(N)nc21 (stereo partly drawn) [PA3001] below 0.2 nmol·h/g?
A) y

Q) Just wondering, is AUC0-24 h of ETVMP in Plasma of C=C1[C@@H](CO)[C@@H](O)C[C@@H]1n1cnc2c(=O)[nH]c(N)nc21 [ETV, reference compound] below 0.2 nmol·h/g?
A) n

Q) Just wondering, is AUC0-24 h of ETVMP in Plasma of C=C1[C@H](COP2(=O)OCC[C@H](c3ccncc3)O2)[C@@H](O)C[C@@H]1n1cnc2c(=O)[nH]c(N)nc21 (stereo partly drawn) [PA3003] below 0.2 nmol·h/g?
A) y

Q) Just wondering, is AUC0-24 h of ETVMP in Plasma of C=C1[C@H](COP2(=O)OCC[C@H](c3cc(F)cc(Cl)c3)O2)[C@@H](O)C[C@@H]1n1cnc2c(=O)[nH]c(N)nc21 (stereo partly drawn) [PA3002] below 0.2 nmol·h/g?
A) y

Others:
Q) Just wondering, is AUC0-24 h of ETVMP in Plasma of C=C1[C@H](COP2(=O)OCC[C@H](c3cc(Cl)ccc3F)O2)[C@@H](O)C[C@@H]1n1cnc2c(=O)[nH]c(N)nc21 (stereo partly drawn) [PA3004] below 0.2 nmol·h/g?
A) y

Q) Just wondering, is AUC0-24 h of ETVMP in Plasma of C=C1[C@H](COP2(=O)OCC[C@H](c3cc(Cl)ccc3Cl)O2)[C@@H](O)C[C@@H]1n1cnc2c(=O)[nH]c(N)nc21 (stereo partly drawn) [PA3017] below 0.2 nmol·h/g?
A) y

# credit: patent US10913766B2
